Tested on: biomarker (antibody) in serum samples from patients with symptoms of tuberculosis
Format: binding, human
test-settings: serum sample 20 TB−
Marks after values point to notes of the source that are not given here.
readout-type: ELISA absorbance at 492 nm

Completed entries (count: 4):
molecule: CCCCCCCCCCCCCCCCCCCCCC[C@@H](C(=O)OC[C@H]1O[C@H](OC)[C@@H](O)[C@@H]1O)[C@H](O)CCCCCCCCCCCCCCC[C@@H]1C[C@@H]1CCCCCCCCCCCCCCCCCCC(=O)C(C)CCCCCCCCCCCCCCCCCC (some centres unmarked) [Antigen C]
ELISA absorbance at 492 nm: 0.41*

molecule: CCCCCCCCCCCCCCCCCCCCCCCC[C@@H](C(=O)OC[C@H]1O[C@H](OC)[C@@H](O)[C@@H]1O)[C@H](O)CCCCCCCCCCC[C@H]1CC1CCCCCCCCCCCCCC[C@H]1C[C@H]1CCCCCCCCCCCCCCCCCCCC (some centres unmarked) [Antigen F]
ELISA absorbance at 492 nm: 1.03*

molecule: CCCCCCCCCCCCCCCCCCCCCC[C@@H](C(=O)OC[C@H]1O[C@H](OC)[C@@H](O)[C@@H]1O)[C@H](O)CCCCCCCCCCCCCCCCC[C@H]1C[C@H]1CCCCCCCCCCCCCCCC[C@@H](OC)[C@@H](C)CCCCCCCCCCCCCCCCCC [Antigen E]
ELISA absorbance at 492 nm: 0.38*

molecule: CCCCCCCCCCCCCCCCCCCCCCCC[C@@H](C(=O)OC[C@H]1O[C@H](OC)[C@@H](O)[C@@H]1O)[C@H](O)CCCCCCCCCCCCCCCCC[C@@H]1C[C@@H]1CCCCCCCCCCCCCCCC[C@@H](OC)[C@@H](C)CCCCCCCCCCCCCCCCCC [Antigen B]
ELISA absorbance at 492 nm: 0.63*

Query molecule follows.
Value lookup for ELISA absorbance at 492 nm; key = CCCCCCCCCCCCCCCCCCCCCC[C@@H](C(=O)OC[C@H]1O[C@H](OC)[C@@H](O)[C@@H]1O)[C@H](O)CCCCCCCCCCCCCCCCC[C@@H]1C[C@@H]1CCCCCCCCCCCCCCCC[C@@H](OC)[C@@H](C)CCCCCCCCCCCCCCCCCC [Antigen A]
0.34*
